meta.source: the Human Domainome abundance scans (Beltran et al. 2025)

B1: 3'-5' exoribonuclease 1, residues 65 to 114; numbered along this chain, Q8IV48 (parent)
chain: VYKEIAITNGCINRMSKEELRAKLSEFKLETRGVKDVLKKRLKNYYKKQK

- Variants of: B1
- experiment: abundance fitness (aPCA) (normalised: wild type 0, dead -1); higher = more abundant; growth selection in yeast, the domain comes from the species named
- settings: Homo sapiens
measurement type: abundance fitness
Would you mind answering with just the numeric figure?

Example variants with recorded abundance fitness:
{"variant descriptor": "E18Y", "abundance fitness": -0.179}
{"variant descriptor": "E4R", "abundance fitness": -0.353}
{"variant descriptor": "S16Y", "abundance fitness": -0.461}
{"variant descriptor": "L24A", "abundance fitness": -0.704}
{"variant descriptor": "C11M", "abundance fitness": 0.057}
{"variant descriptor": "E30V", "abundance fitness": -0.738}

What does the record list as abundance fitness for E4A ?
-0.113

Now this one: N13L
-0.914

Now this one: R14I
-0.724
